The measured values listed here are drawn from patent US8604016B2.

Catalogue of recovery at 120 min, 1 μM readings, one per entry.
# METHOD_DESCRIPTION: Caco-2 Permeability Assay (bidirectional)
# Assay type: in vitro ADME
# CONDITIONS_USED: human, Caco-2, pH 7.4, Direction B→A; 1 μM, 120 minutes, pH 7.4
API: value field is a number in %; no unit string.

Below, each entry is followed by its recorded recovery at 120 min, 1 μM result.
| STRUCTURE_STRING | MEASURED_ATTRIBUTE | REPORTED |
| --- | --- | --- |
| O=C(Cc1cccc(OC(F)(F)F)c1)Nc1ccc(CCCCc2nnc(NC(=O)Cc3cccc(F)c3)s2)nn1 | recovery at 120 min, 1 μM | 42 |
| O=C(Cc1cccc(OC(F)(F)F)c1)Nc1ccc(CCCCc2nnc(NC(=O)Cc3ccccc3)s2)nn1 | recovery at 120 min, 1 μM | 53 |

Okay, next one:
Enquiry: Bench note: what recovery at 120 min, 1 μM did CC(C)(C)OC(=O)NCc1cccc(CC(=O)Nc2nnc(CCCCc3ccc(NC(=O)Cc4ccccc4)nn3)s2)c1 show?
Return: 80
